Measured values drawn from paper PMC11062899 for this set.

Hi there, I'd appreciate the recorded Residual thrombin activity: Top sample for every entry that follows.
molecular target: UniProt P00734; experiment: Sub-library screen for active and permeable cyclic peptides (PAMPA plus thrombin inhibition); assay type: biochemical; conditions: PAMPA acceptor well after 14 h, 5 μM donor; crude; slopes normalized to DMSO

Requested field: Residual thrombin activity: Top sample. Item: N#Cc1ccc(C[C@@H]2NC(=O)[C@@H](NC(=O)c3ccc(Cl)s3)CCSCc3cccc(c3)CSCCNC(=O)C[C@H]3CCCN3C2=O)cc1 106.2

Field request: Residual thrombin activity: Top sample | item: O=C1C[C@H]2CCCN2C(=O)[C@H](Cc2ccc(Cl)cc2)NC(=O)[C@@H](NC(=O)c2ccc(Cl)s2)CCCSCc2cccc(c2)CSCCN1 103.1

Can you share its Residual thrombin activity: Top sample? I mean this compound: O=C1CSCCC[C@H](NC(=O)c2ccc(Cl)s2)C(=O)N[C@@H](Cc2ccc(C(F)(F)F)cc2)C(=O)N2CCC[C@@H]2CC(=O)NCCSC1 101.7

What Residual thrombin activity: Top sample value was documented for this compound, Cc1cccc(C[C@@H]2NC(=O)[C@@H](NC(=O)c3ccc(Cl)s3)CCSCc3ccc(cc3)CSCCNC(=O)C[C@H]3CCCN3C2=O)c1 ? 100.6

Can you share its Residual thrombin activity: Top sample? I mean this compound: Cc1cccc(C[C@@H]2NC(=O)[C@@H](NC(=O)c3ccc(Cl)s3)CSC/C=C/CSCCNC(=O)C[C@H]3CCCN3C2=O)c1 87.8

Please give Residual thrombin activity: Top sample for each item listed below.
1. CN1C(=O)[C@@H](NC(=O)c2ccc(Cl)s2)CCSCC(=O)CSCCNC(=O)C[C@H]2CCCN2C(=O)[C@@H]1Cc1ccccc1
2. COc1ccc(C[C@@H]2NC(=O)[C@@H](NC(=O)c3ccc(Cl)s3)CSCc3ccc(cc3)CSCCNC(=O)C[C@H]3CCCN3C2=O)cc1
3. Cc1cccc(C[C@@H]2NC(=O)[C@@H](NC(=O)c3ccc(Cl)s3)CCCSC/C=C/CSCCNC(=O)C[C@H]3CCCN3C2=O)c1
4. O=C1C[C@H]2CCCN2C(=O)[C@H](Cc2ccc(Cl)cc2)NC(=O)[C@@H](NC(=O)c2ccc(Cl)s2)CCCSCCS(=O)(=O)CCSCCN1
5. COc1ccc(C[C@@H]2NC(=O)[C@@H](NC(=O)c3ccc(Cl)s3)CCCSCc3cccc(c3)CSCCNC(=O)C[C@H]3CCCN3C2=O)cc1
6. O=C1C[C@H]2CCCN2C(=O)[C@H](Cc2ccc(C(F)(F)F)cc2)NC(=O)[C@@H](NC(=O)c2ccc(Cl)s2)CCSCc2cccc(c2)CSCCN1

1. 101.9
2. 96.4
3. 84.2
4. 98.4
5. 101.3
6. 106.2

For each of the items listed, what is its Residual thrombin activity: Top sample?
1. O=C1C[C@H]2CCCN2C(=O)[C@H](Cc2ccc(C(F)(F)F)cc2)NC(=O)[C@@H](NC(=O)c2ccc(Cl)s2)CCSCc2ccc(cc2)CSCCN1
2. COc1ccc(C[C@@H]2NC(=O)[C@@H](NC(=O)c3ccc(Cl)s3)CCCSCCS(=O)(=O)CCSCCNC(=O)C[C@H]3CCCN3C2=O)cc1
3. O=C1C[C@H]2CCCN2C(=O)[C@H](Cc2ccc(Cl)cc2)NC(=O)[C@@H](NC(=O)c2ccc(Cl)s2)CSCCS(=O)(=O)CCSCCN1

95.8
105.7
95.9

Provide each entry's Residual thrombin activity: Top sample from the list below.
1. COc1ccc(C[C@@H]2NC(=O)[C@@H](NC(=O)c3ccc(Cl)s3)CCCSCc3ccccc3CSCCNC(=O)C[C@H]3CCCN3C2=O)cc1
2. O=C1C[C@H]2CCCN2C(=O)[C@H](Cc2ccc(Cl)cc2)NC(=O)[C@@H](NC(=O)c2ccc(Cl)s2)CSCc2ccccc2CSCCN1
3. O=C1C[C@H]2CCCN2C(=O)[C@H](Cc2ccc(C(F)(F)F)cc2)NC(=O)[C@@H](NC(=O)c2ccc(Cl)s2)CCCSCc2ccccc2CSCCN1
4. CN1C(=O)[C@@H](NC(=O)c2ccc(Cl)s2)CCSCc2ccccc2CSCCNC(=O)C[C@H]2CCCN2C(=O)[C@@H]1Cc1ccccc1
5. O=C1C[C@H]2CCCN2C(=O)[C@@H](Cc2ccccc2)NC(=O)[C@@H](NC(=O)c2ccc(Cl)s2)CCCSCc2ccc(cc2)CSCCN1
6. COc1ccc(C[C@@H]2NC(=O)[C@@H](NC(=O)c3ccc(Cl)s3)CCSCc3cccc(c3)CSCCNC(=O)C[C@H]3CCCN3C2=O)cc1
7. O=C1C[C@H]2CCCN2C(=O)[C@H](Cc2ccccc2)NC(=O)[C@@H](NC(=O)c2ccc(Cl)s2)CCCSC/C=C/CSCCN1
8. COc1ccc(C[C@@H]2NC(=O)[C@@H](NC(=O)c3ccc(Cl)s3)CCCSCc3cccc(n3)CSCCNC(=O)C[C@H]3CCCN3C2=O)cc1

1: 95.1; 2: 93.0; 3: 96.6; 4: 94.2; 5: 99.4; 6: 104.9; 7: 55.8; 8: 99.7

Can you give me Residual thrombin activity: Top sample for all of these, one by one?
1. N#Cc1ccc(C[C@@H]2NC(=O)[C@@H](NC(=O)c3ccc(Cl)s3)CSCc3ccccc3CSCCNC(=O)C[C@H]3CCCN3C2=O)cc1
2. O=C1C[C@H]2CCCN2C(=O)[C@@H](Cc2ccccc2)NC(=O)[C@@H](NC(=O)c2ccc(Cl)s2)CCSCc2cccc(c2)CSCCN1

1. 90.5
2. 105.0

* * *

Hi there, I'd appreciate the recorded half-life for every entry that follows.
assay: Metabolic stability in rat liver microsomes (RLMs); details: rat, microsomes, Half Life (min), R2, RLM metabolic stability, replicate R2

Query (molecule): O=C1C[C@H]2CCCN2C(=O)[C@H](Cc2ccccc2)NC(=O)[C@@H](NC(=O)c2ccc(Cl)s2)CCCSC/C=C/CSCCN1 [compound 36] ; field requested: half-life 22.4 min

With those in mind, consider the next molecule.
Request the reported half-life associated with O=C1CSCCC[C@H](NC(=O)c2ccc(Cl)s2)C(=O)N[C@@H](Cc2ccccc2)C(=O)N2CCC[C@@H]2CC(=O)NCCSC1 [compound 37] 14.2 min

* * *

assay: Metabolic stability in rat liver microsomes (RLMs); settings: rat, microsomes, RLM CL, rat liver microsomes, individual replicates R1-R3, incubation volume 400 ul, protein 0.5 mg/ml
Field: microsomal CLint. Provide a value for each of the compounds that follow.
Give bare numbers, in µL/min/mg.

Recorded microsomal CLint for NC(=O)NCCC[C@@H]1NC(=O)C2CN(CCN2C(=O)C2CCCN2S(=O)(=O)c2ccc(F)cc2)C(=O)CCSC/C=C/CSCCNC1=O (some centres unmarked) [peptide 4] , please? 44.4

Using the record for O=C(Cc1c[nH]c2ccccc12)N[C@H]1CSCCS(=O)(=O)CCSCCNC(=O)C2(CCCC2)NC(=O)[C@@H]2CCCN2C1=O [compound 5] , report its microsomal CLint. 12.6

I have this compound here, CC(C)[C@@H]1NC(=O)CCSCCS(=O)(=O)CCSCCNC(=O)[C@H](CNC(=O)c2ccco2)NC1=O [compound 10] , and I need its recorded microsomal CLint. 15.4

Give me microsomal CLint for each of these compounds, listed below.
1. Cn1nccc1C(=O)N1CCC2(CC1)NC(=O)[C@H](CC1CCCCC1)NC(=O)CCSCc1cccc(n1)CSCCNC2=O [compound 9]
2. O=C1C[C@@H]2CCCN2C(=O)[C@@H](NC(=O)c2cccc(Cl)c2)CSCc2cccc(n2)CSCCNC(=O)[C@H](Cc2c[nH]c3ccccc23)N1 [compound 7]

1. 80.2
2. 48.8

* * *

Test system: porcine pancreatin
Assay: Peptide stability in simulated intestinal fluid (SIF)
Assay type: in vitro ADME
Set-up: dose or concentration left out as unconfirmed
Conditions: pig, simulated intestinal fluid (SIF) with porcine pancreatin; 8 h, 37 °C, pH 6.8; read-out: Proteolytic stability: SIF (8 h) % remaining
Description: Simulated gastric and intestinal fluids were prepared according to the States Pharmacopeia specifications (Test Solutions, United States Pharmacopeia 35, NF 30, 2012). SGF: 0.2 g of sodium chloride was dissolved in 50 ml of water, and the pH was adjusted to 1.2 by addition of 0.7 ml of 10 M hydrochloric acid. […] Supernatant was analyzed by LC–MS to measure the peptide concentrations at the different timepoints. Residual peptide was calculated by normalizing the concentrations measured at T1 to T0.
Square brackets hold non-standard residues; d marks the D form. Peptide text beside a SMILES is read from it. NMeY = CN[C@@H](Cc1ccc(O)cc1)C(=O)O; NMeL = CN[C@@H](CC(C)C)C(=O)O; dNMeL = CN[C@H](CC(C)C)C(=O)O
measured-endpoint: remaining at 8 h (%)
Answers are plain numbers, in %.

I'm curious: which remaining at 8 h was measured for CC(C)C[C@@H]1NC(=O)[C@H](Cc2ccc(O)cc2)N(C)C(=O)[C@H]2CCCN2C(=O)[C@H](CC(C)C)NC(=O)[C@H](CC(C)C)N(C)C(=O)[C@@H](CC(C)C)N(C)C1=O [1NMe3, reference compound] (cyclo(L[dNMeL][NMeL]L[dP][NMeY])) tested on porcine pancreatin? 98
